The measurements presented in this section are drawn from the METLIN SMRT retention time set (Domingo-Almenara et al. 2019).

assay: gradient 5% acetonitrile 3 min, to 50% in 2 min, to 85% in 15 min, held 3 min, 100 µL/min; details: column: Zorbax Extend-C18 2.1 x 50 mm; eluents: water / acetonitrile, 0.1% formic acid
Mark each entry y if its RP-LC retention time sits below 700 s, and n for all others.

### Prompt Does this molecule meet the criterion RP-LC retention time < 700 s? `O=C(Nc1nc(-c2ccc(F)cc2)cs1)c1cccc(Br)c1`
### Response n

### Prompt Consider `O=c1c(NCc2ccccc2Cl)nccn1-c1ccc2c(c1)OCO2` . Does its RP-LC retention time lie strictly below 700 s?
### Response n

### Prompt Is 700 s strictly greater than the molecule's reported RP-LC retention time? molecule: `CCn1cc(SCC(=O)NCc2ccc3c(c2)OCO3)c2ccccc21`
### Response n

### Prompt Hello, is RP-LC retention time of the following molecule strictly smaller than 700 s? `O=c1c2nnc3c(-c4ccccc4)cnn3c2ccn1CCc1c[nH]c2ccccc12`
### Response n

### Prompt Bench note: check whether `O=c1c(Cl)c(N2CCN(c3ccccn3)CC2)cnn1-c1nc2ccccc2s1` shows RP-LC retention time below 700 s
### Response y

### Prompt Quick check: RP-LC retention time of `CCn1ccc(NC(=O)c2cc(C)ccc2C)n1` under 700 s?
### Response n

### Prompt Does this molecule meet the criterion RP-LC retention time < 700 s? CCCC(=O)Nc1ccc2c(c1)C(=O)CC(c1ccc3c(c1)OCO3)O2 (stereo not given)
### Response n

### Prompt Lab log: compare recorded RP-LC retention time with 700 s; is it strictly lower for `c1ccc2c(c1)CCN(Cc1nc(-c3ccc(N4CCCC4)nc3)no1)C2` ?
### Response y

### Prompt A record lists `COc1cc(OC)cc(-c2nc(-c3nnn(Cc4ccccc4)c3C)no2)c1` . Is its RP-LC retention time below 700 s?
### Response n

### Prompt Please check: RP-LC retention time for `Cc1ccc2nc(C(=O)N3CCN(c4ccccc4Cl)CC3)cn2c1` , strictly under 700 s or not?
### Response n
